The entries below are paired with their reported protein stability index.
B1: ZNF263 (parent)
chain: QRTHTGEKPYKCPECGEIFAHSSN

Variants of: B1
experimentalProtocol: protein stability index of a GFP-peptide fusion (GPS, HEK-293T) (PSI 1-6); higher = more stable;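 also: lentivirally expressed fusions sorted by FACS into six bins by GFP to DsRed ratio, PSI derived from sequencing read proportions per bin multiplied by bin number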
condition: c terminus: a fixed tail appended
Write the number on its own, no unit after it.

> print(dat)
   mutant          measurementname  result
1    C12L  protein stability index    3.77
2     P9F  protein stability index    3.22
3    E14M  protein stability index    3.82
4    N24I  protein stability index    2.65
5    G16S  protein stability index    3.14

INPUT: Provide only the value of recorded protein stability index for K11C
OUTPUT: 3.62

INPUT: Provide only the value of recorded protein stability index for G16E
OUTPUT: 4

INPUT: Provide only the value of recorded protein stability index for C12E
OUTPUT: 4.53

INPUT: Provide only the value of recorded protein stability index for Y10F
OUTPUT: 3.25

INPUT: Provide only the value of recorded protein stability index for N24C
OUTPUT: 5.06

INPUT: Provide only the value of recorded protein stability index for C12F
OUTPUT: 4.12
